- system-tested: UniProt P30542
- Sequence (P30542 whole entry): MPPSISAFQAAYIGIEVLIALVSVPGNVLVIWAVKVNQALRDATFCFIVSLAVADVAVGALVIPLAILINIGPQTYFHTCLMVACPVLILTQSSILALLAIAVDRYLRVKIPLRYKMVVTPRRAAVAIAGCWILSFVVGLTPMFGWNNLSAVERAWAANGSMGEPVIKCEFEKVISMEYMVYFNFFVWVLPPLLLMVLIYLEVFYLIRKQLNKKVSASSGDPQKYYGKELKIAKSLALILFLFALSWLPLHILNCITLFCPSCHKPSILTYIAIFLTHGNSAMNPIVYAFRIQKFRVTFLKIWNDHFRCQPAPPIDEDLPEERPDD
- procedure-details: Percent change in cAMP content of CHO (Chinese hamster ovary) cells expressing human Adenosine A1 receptor at 0.01 uM
- Format: functional, cell-based
recorded-endpoint: Change (%)

| molecule | units-of-measure | Change |
| --- | --- | --- |
| Cc1sc(N)c(C(=O)c2ccc(Cl)c3ccccc23)c1C | % | 12 |

1: Nc1sc2c(c1C(=O)c1ccc(I)c3ccccc13)CCN(Cc1ccccc1)C2
2: Cc1sc(N)c(C(=O)c2cc(C)c3ccccc3c2)c1C
3: Cc1cc(C(=O)c2c(N)sc3c2CCCC3)cc2ccc(Cl)cc12
4: Nc1sc2c(c1C(=O)c1ccc(Br)c3ccccc13)CCN(Cc1ccccc1)C2
5: Nc1sc2c(c1C(=O)c1ccc(Cl)c3ccccc13)CCC2
[in] Returns the items ordered by Change, from maximum to minimum. Respond with the label ranking, as requested.
[out] 4, 2, 3, 1, 5
(4: 18%, 2: 4%, 3: -0%, 1: -6%, 5: -10%)
